- Tested System: Metabotropic glutamate receptor 8 (Rattus norvegicus)
- Assay Name: mGluR8 Gi/Go-coupled signaling modulation – cell-based, rat, thallium flux, HTS, primary screen (AID 488969)
- Conditions Used: HEK293 rat mGluR8, GIRK thallium flux, FluoZin2; at 10 µM; stronger effect = higher value; submaximal glutamate (EC20) added with thallium
In all, about 110,000 compounds were measured (“z-score”: median about -0.1, highest 2% from about 2 on). The list comes from a sample in which the highest values are over-represented; it also holds close analogues and randomly drawn compounds.
Value Kind: z-score
Returns: the value as a bare number; no unit string appended.

The cases that follow already have their z-score on record.
[[record]]
given_smiles = "CC(=O)c1cc2c(cc1NC(=O)CCC1CCCC1)OCO2"
observed_result = 0.181

[[record]]
given_smiles = "CCNC(=S)Nc1ccc(Oc2ccccc2)cc1"
observed_result = 0.818

[[record]]
given_smiles = "O=C(OCC#CCSc1nnc(-c2ccncc2)o1)c1cccs1"
observed_result = -0.0957

[[record]]
given_smiles = "CCCN1CCC(NC(=S)Nc2ccc(C(=O)OCC)cc2)CC1"
observed_result = -0.26

[[record]]
given_smiles = "O=C(OCC#CCSc1nnc(-c2ccccc2)o1)c1cccs1"
observed_result = -0.745


Proceed to the following item.
Given `Cc1ccc(-n2nc(-c3cccnc3)cc2C(=O)N2CCOCC2)c(C)c1` , state its recorded z-score.
0.372

====

Measured z-score, listed per entry for reference.
- Tested System: Metabotropic glutamate receptor 8 (Rattus norvegicus) (UniProt P70579)
- Sequence (P70579 whole entry, looked up): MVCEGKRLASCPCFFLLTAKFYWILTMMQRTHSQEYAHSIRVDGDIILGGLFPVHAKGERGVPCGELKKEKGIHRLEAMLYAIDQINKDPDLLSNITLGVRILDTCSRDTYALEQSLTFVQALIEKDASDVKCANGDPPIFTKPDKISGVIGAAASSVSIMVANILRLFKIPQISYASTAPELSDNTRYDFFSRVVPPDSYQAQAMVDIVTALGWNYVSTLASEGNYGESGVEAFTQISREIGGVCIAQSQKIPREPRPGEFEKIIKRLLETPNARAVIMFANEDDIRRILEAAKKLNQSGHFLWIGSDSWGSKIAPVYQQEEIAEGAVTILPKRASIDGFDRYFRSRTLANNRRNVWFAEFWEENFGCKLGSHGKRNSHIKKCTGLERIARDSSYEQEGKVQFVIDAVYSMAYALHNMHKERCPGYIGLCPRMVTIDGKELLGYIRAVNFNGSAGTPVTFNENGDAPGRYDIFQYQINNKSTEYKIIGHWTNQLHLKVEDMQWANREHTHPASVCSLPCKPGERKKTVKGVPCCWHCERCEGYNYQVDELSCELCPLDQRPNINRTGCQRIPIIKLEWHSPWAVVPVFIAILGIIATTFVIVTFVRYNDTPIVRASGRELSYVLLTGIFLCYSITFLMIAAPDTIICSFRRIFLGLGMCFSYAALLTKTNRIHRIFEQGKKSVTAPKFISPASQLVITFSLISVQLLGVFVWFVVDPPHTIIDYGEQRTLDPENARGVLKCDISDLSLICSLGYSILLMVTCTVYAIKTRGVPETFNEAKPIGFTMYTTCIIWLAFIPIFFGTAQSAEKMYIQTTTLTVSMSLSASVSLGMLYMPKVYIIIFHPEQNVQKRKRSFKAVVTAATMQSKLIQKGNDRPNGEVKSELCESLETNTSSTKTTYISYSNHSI
- Assay Name: mGluR8 Gi/Go-coupled signaling modulation – cell-based, rat, thallium flux, HTS, primary screen (AID 488969)
- Conditions Used: HEK293 rat mGluR8, GIRK thallium flux, FluoZin2; at 10 µM; stronger effect = higher value; submaximal glutamate (EC20) added with thallium
Over roughly 110,000 compounds, “z-score” has its median near -0.1; the highest 2% begin near 2. What follows is part of a selection rich in the highest values, with near analogues and random picks from the rest.

[[record]]
compound = "O=C1c2ccccc2NC(c2cn[nH]c2-c2ccccc2)N1O (stereo not given)"
observed_result = -0.0761

[[record]]
compound = "C#CCN(C)CC/C=C1\\c2ccccc2CSc2ccccc21"
observed_result = 1.63

[[record]]
compound = "COc1ccc(NC(=O)N2CCc3ccccc32)cc1"
observed_result = 0.323


Proceed to the following item.
Missing value: z-score, Metabotropic glutamate receptor 8 (Rattus norvegicus) (UniProt P70579), entry `CCOC(=O)c1cnc(SC)nc1N` . Fill in?
-0.0813

====

Measured z-score, listed per entry for reference.
- Tested System: Metabotropic glutamate receptor 8 (Rattus norvegicus) (UniProt P70579)
- Assay Name: mGluR8 Gi/Go-coupled signaling modulation – cell-based, rat, thallium flux, HTS, primary screen (AID 488969)
- Conditions Used: HEK293 rat mGluR8, GIRK (G protein-gated inwardly rectifying potassium channel) thallium flux, FluoZin2; at 10 µM; stronger effect = higher value; submaximal glutamate (EC20) added with thallium
Over roughly 110,000 compounds, “z-score” has its median near -0.1; the highest 2% begin near 2. Only a selection was taken, and the highest values are over-represented in it overall. Active and inactive are the calls of the source.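 The calls were made as follows: active = z-score in the third read window above 3 or below -3; inactive = the rest.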

The cases that follow already have their z-score on record.
[[record]]
compound = "CCOC(=O)c1ccc(Oc2nc(NC)nc(OC)n2)cc1"
observed_result = -0.524

[[record]]
compound = "Cc1cc(NC(=O)COC(=O)c2cccc(OCc3ccccc3)c2)no1"
observed_result = 0.388

[[record]]
compound = "COCc1nnc(NC(=O)CCSc2ccccc2)s1"
observed_result = -0.0854

[[record]]
compound = "N=c1c2c3c(sc2ncn1Cc1ccccc1)CCCC3"
observed_result = 0.187

[[record]]
compound = "Cc1nnc(NC(=O)Cc2cccs2)s1"
observed_result = 2.4

[[record]]
compound = "Cc1ccc(/C=C/C2=NN(Cc3ccc(Cl)c(Cl)c3)C(=O)CC2)cc1"
observed_result = -0.176

[[record]]
compound = "Cc1ccc(/C=N/NC(=S)N2CCOCC2)cc1"
observed_result = "4.72 (active)"

[[record]]
compound = "COC(=O)c1ccc(C)c(NC(=O)Cc2coc3cc(OC)ccc23)c1"
observed_result = 0.022


Missing value: z-score, Metabotropic glutamate receptor 8 (Rattus norvegicus) (UniProt P70579), entry `CCOc1ccccc1N1CCN(C(=S)Nc2ccc(S(N)(=O)=O)cc2)CC1` . Fill in?
-0.356

Similarly, `O=C(Cc1cccs1)NCc1cccnc1` ?
0.742

Similarly, `CCCCc1nnc(NC(=O)CCSc2ccccc2)s1` ?
0.0449

Similarly, `COc1cc(NC(=O)c2ccc(COCC(F)(F)F)cc2)cc(OC)c1OC` ?
-0.608

Similarly, Cc1cc(C)nc(N2CCCC(C(=O)NCCc3cccc(F)c3)C2)n1 (centres undefined) ?
-0.0417

Similarly, `Cn1c(=O)c(-c2ccccc2)nc2ccccc21` ?
-0.27

Similarly, `O=C(Cc1cccs1)Nc1nnc(Cc2ccccc2)s1` ?
-0.0843

Similarly, `c1cn(C23CC4CC(CC(C4)C2)C3)cn1` ?
4.17 (active)

Similarly, CC1Oc2ccccc2N(CC(=O)NCCc2ccccc2)C1=O (centres undefined) ?
2.08

Similarly, `CC12CC3CC(C)(C1)CC(C(=O)NC(=S)N1CCCCC1)(C3)C2` ?
8.62 (active)

Similarly, CC1Oc2ccccc2N(CC(=O)NCC2CCCO2)C1=O (centres undefined) ?
-0.413

Similarly, `S=C(N/N=C/c1ccc(Cl)cc1)N1CCOCC1` ?
11.9 (active)

Similarly, `c1nnnn1C12CC3CC(CC(C3)C1)C2` ?
0.487

Similarly, `O=C(Cc1cccs1)Nc1nnc(CCc2ccccc2)s1` ?
0.238

Similarly, `O=C(CC12CC3CC(CC(C3)C1)C2)NCC(=O)N1CCCC1` ?
0.463

Similarly, `Cc1cccc(NC(=O)c2sc(NC(=O)COc3ccccc3)c(C#N)c2C)c1C` ?
-0.152

Similarly, `COCCSc1nnc(NC(=O)Cc2cccs2)s1` ?
0.124

Similarly, `N=c1c2c3c(sc2ncn1CCCO)CCCC3` ?
-0.123

Similarly, `C/C(Cl)=C\Cn1c(NCCCn2ccnc2)nc2c1c(=O)n(C)c(=O)n2C` ?
-0.632

Similarly, `S=C(Nc1ccc(Cl)cc1)N1CCOCC1` ?
0.122

Similarly, `O=C(CSc1nc2ccccc2c(=O)n1-c1ccccc1)N1CCCC1` ?
-0.689
